- tgt: SLAMF9 protein (UniProt Q96A28 19-236, limits assumed)
- Sequence (Q96A28 19-236 limits assumed): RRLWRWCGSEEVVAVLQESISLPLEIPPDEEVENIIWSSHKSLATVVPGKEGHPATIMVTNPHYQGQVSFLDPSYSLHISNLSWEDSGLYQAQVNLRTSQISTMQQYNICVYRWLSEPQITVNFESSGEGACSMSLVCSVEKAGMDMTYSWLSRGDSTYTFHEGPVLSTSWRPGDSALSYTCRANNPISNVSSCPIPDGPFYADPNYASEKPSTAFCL
- experiment.summary: phage clone on SLAMF9 protein

>  <binder>
ET200-108 (scFv, screened as phage clone; entry is VL-linker-VH-His tag-HA tag) scFv: QSVLTQPPSVSAPPGQKVTISCSGSSSNIGNNYVSWYQQFPGTAPKLLIYDNNKRPSGISDRFSGSKSGTSATLGIAGLQTGDEADYYCGTWDTSLSGFYVFGSGTKVTVLGSRGGGGSGGGGSGGGGSLEMAEVQLVQSGAEVKKPGASVKVSCKASGYTFTSYTISWVRQAPGQGLEWMGWISTYNGLTNYAQNLQGRVTMTTDTFTTTAYMELRSLRSDDTAVYYCVREGSPDYGDFASFDYWGQGTLVTVSSTSGQAGQHHHHHHGAYPYDVPDYAS

>  <binding result>
no binding

$$$$
>  <binder>
ET200-125 (scFv, screened as phage clone; entry is VL-linker-VH-His tag-HA tag) scFv: NFMLTQPHAVSESPGKTVTISCTRSSGSIASNYVQWYQQRPGSSPRTVIYEDNQRPSGVPGRFSGSIDSSSNSASLTISGLKTEDEADYYCQSYDSTSVLFGGGTKLTVLGSRGGGGSGGGGSGGGGSLEMAEVQLVQSGAEVKKPGSSVKVSCKASGGTFSSNSLSWVRQAPGQGLEWMGRIFPILGITNYAQKFQGRVTITADKSTSTAYMELSSLRSEDTAVYYCARGNYQWYDAFDIWGQGTMVTVSSTSGQAGQHHHHHHGAYPYDVPDYAS

>  <binding result>
no binding

$$$$
>  <binder>
ET200-040 (scFv, screened as phage clone; entry is VL-linker-VH-His tag-HA tag) scFv: QSVLTQPPSVSGAPGQRVTISCTGSSSNIGAGYDVHWYQQLPGTAPKLLIYGNSNRPSGVPDRFSGSKSGTSASLAITGLQAEDEADYYCQSYDSSLSGYVFGTGTKVTVLGSRGGGGSGGGGSGGGGSLEMAQVQLVQSGAEVKKPGASVKVSCKVSGYTLTELSMHWVRQAPGKGLEWMGGFDPEDGETIYAQKFQGRVTMTEDTSTDTAYMELSSLRSEDTAVYYCARYSGVYYDWGQGTLVTVSSTSGQAGQHHHHHHGAYPYDVPDYAS

>  <binding result>
no binding

$$$$
>  <binder>
ET200-105 (scFv, screened as phage clone; entry is VL-linker-VH-His tag-HA tag) scFv: SYVLTQPPSVSVSPGQTASITCSGDRLTNKYVSWYQQKPGQSPVLVIYEDAKRPSGIPARFSGSNSGNTATLTISGTQAMDESEYYCQAWDSSVVVFGGGTKLTVLGSRGGGGSGGGGSGGGGSLEMAEVQLVESGGGLVQPGRSLRLSCAASGFTFDDYAMHWVRQAPGKGLEWVSGISWNSGSIGYADSVKGRFTISRDNAKNSLYLQMNSLRDEDTALYYCAKDRGGGVIVKDAFDIWGQGTMVTVSSTSGQAGQHHHHHHGAYPYDVPDYAS

>  <binding result>
no binding

$$$$
>  <binder>
ET200-002 (scFv, screened as phage clone; entry is VL-linker-VH-His tag-HA tag) scFv: NFMLTQPHSVSESPGKTVTISCTRSSGSIASNYVQWYQQRPGSAPTTVIYEDNQRPSGVPDRFSGSIDSSSNSASLTISGLKTEDEADYYCQSYDSSNSVVFGGGTKLTVLGSRGGGGSGGGGSGGGGSLEMAQVQLVQSGTEVKKPGASVRVACKASGYPFNKYDINWVRQAPGQGLEWMGGIIPIFRTTNYAQKFQGRVTITADESTSTAYMELSSLRSEDTAVYYCAREWFYWDIWGQGTLVTVSSTSGQAGQHHHHHHGAYPYDVPDYAS

>  <binding result>
no binding

$$$$
